- System: KHYG-1 (IL-2 2.5 ng/mL)
- assay: drug sensitivity score (DSS) (DSS units); higher = more sensitive; extreme values may be limits of the assay
- conditions: 72 h
quantity: drug sensitivity score
Give bare numbers.

Oc1c2ccccc2c2c3c(cccc13)N=N2 (max concentration tested 100000 nM) ... 9.5

Consider the following items and state reported drug sensitivity score for each.
1. C/C(=C\c1csc(C)n1)[C@@H]1C[C@@H]2O[C@]2(C)CCC[C@H](C)[C@H](O)[C@@H](C)C(=O)C(C)(C)[C@@H](O)CC(=O)N1 [Ixabepilone] (max concentration tested 1000 nM)
2. CC(=O)Nc1ccc(C(=O)Nc2ccccc2N)cc1 [Tacedinaline] (max concentration tested 1000 nM)
3. C[C@@H](Oc1ccc2[nH]nc(/C=C/c3cnn(CCO)c3)c2c1)c1c(Cl)cncc1Cl (max concentration tested 1000 nM)
4. C#Cc1cccc(Nc2ncnc3cc(OCCOC)c(OCCOC)cc23)c1 [Erlotinib] (max concentration tested 10000 nM)
5. COc1cc2nccc(Oc3ccc(NC(=O)C4(C(=O)Nc5ccc(F)cc5)CC4)cc3)c2cc1OC [Cabozantinib] (max concentration tested 1000 nM)

5.84
0.78
21.6
4.03
0

====

- Tested on: normal primary NK cells, pool 1 (3 donors), resting (IL-2 0 ng/mL)
- assay: percent inhibition of viability; higher = more inhibition
- conditions: 72 h; 1 nM
quantity: percent inhibition of viability (%)
Numbers only, in %.

O=C(CCBr)N1CCN(C(=O)CCBr)CC1 [Pipobroman] (max concentration tested 10000 nM) ... 2.78
Cn1cncc1[C@@](N)(c1ccc(Cl)cc1)c1ccc2c(c1)c(-c1cccc(Cl)c1)cc(=O)n2C [Tipifarnib] (max concentration tested 10000 nM) ... -0.67

# context switch: different compound, same percent inhibition of viability
So what percent inhibition of viability did Nc1cccc2c1C(=O)N(C1CCC(=O)NC1=O)C2=O (stereo not drawn) [Pomalidomide] (max concentration tested 10000 nM) get with normal primary NK cells, pool 1 (3 donors), resting (IL-2 0 ng/mL)?
-1.02

====

- Tested on: NKL (IL-2 2.5 ng/mL)
- assay: percent inhibition of viability; higher = more inhibition
- conditions: 72 h; 1 nM
quantity: percent inhibition of viability (%)
Answers are plain numbers, in %.

C/C(=C\c1csc(C)n1)[C@@H]1C[C@@H]2O[C@]2(C)CCC[C@H](C)[C@H](O)[C@@H](C)C(=O)C(C)(C)[C@@H](O)CC(=O)O1 [Patupilone] (max concentration tested 1000 nM) ... -10.5

Consider the following items and state reported percent inhibition of viability for each.
1. CC(C)(C)Cn1c(N)nc2ccc(-c3[nH]c(C(C)(C)C)nc3-c3ccc(F)cc3)nc21 [Ralimetinib] (max concentration tested 10000 nM)
2. Cc1cc(Nc2cc(N3CCN(C)CC3)nc(/C=C/c3ccccc3)n2)n[nH]1 [ENMD-2076] (max concentration tested 10000 nM)
3. CCCCCOC(=O)Nc1nc(=O)n([C@@H]2O[C@H](C)[C@@H](O)[C@H]2O)cc1F [Capecitabine] (max concentration tested 10000 nM)
4. C[C@@H]1COC(Nc2ccc3ncnc(Nc4ccc(OCc5nccs5)c(Cl)c4)c3c2)=N1 [Varlitinib] (max concentration tested 10000 nM)

1: 0.97; 2: 2.47; 3: -14.2; 4: 1.14

So what percent inhibition of viability did Nc1cccc2c1C(=O)N(C1CCC(=O)NC1=O)C2=O (stereo unspecified) [Pomalidomide] (max concentration tested 10000 nM) get with NKL (IL-2 2.5 ng/mL)?
-6.14

====

Please go through the items and note down their percent inhibition of viability.
- Test system: normal NK cells expanded with K562-aAPC
- assay: percent inhibition of viability; higher = more inhibition
- conditions: 72 h; IL-2 2.5 ng/mL; 1000 nM
Numbers only, in %.

Worked cases, percent inhibition of viability given:
COc1cc2ncnc(Oc3cccc(NC(=O)Nc4cc(C(C)(C)C(F)(F)F)on4)c3)c2cc1OC (max concentration tested 10000 nM) ... 20.8
CO[C@H]1/C=C\C=C(/C)C(=O)NC2=CC(=O)C(NCCN(C)C)=C(C[C@@H](C)C[C@H](OC)[C@H](O)[C@@H](C)/C=C(\C)[C@@H]1OC(N)=O)C2=O [Alvespimycin] (max concentration tested 1000 nM) ... 100
COc1cc2nccc(Oc3ccc(NC(=O)C4(C(=O)Nc5ccc(F)cc5)CC4)cc3)c2cc1OC [Cabozantinib] (max concentration tested 1000 nM) ... 5.74
Cn1nnc2c(C(N)=O)ncn2c1=O [Temozolomide] (max concentration tested 100000 nM) ... 4.25
S=C(NCc1ccc2c(c1)OCO2)N1CCN(c2ncnc3c2oc2ccccc23)CC1 [Amuvatinib] (max concentration tested 10000 nM) ... 0.6

# context switch: different compound, same percent inhibition of viability
So what percent inhibition of viability did Cc1ccc(NC(=O)c2ccc(CN3CC[C@H](N(C)C)C3)c(C(F)(F)F)c2)cc1Nc1nccc(-c2cncnc2)n1 [Bafetinib] (max concentration tested 1000 nM) get with normal NK cells expanded with K562-aAPC?
30.9

====

Please go through the items and note down their percent inhibition of viability.
- Tested on: normal primary NK cells, pool 1 (3 donors), resting (IL-2 0 ng/mL)
- assay: percent inhibition of viability; higher = more inhibition
- conditions: 72 h; 10000 nM
Answers are plain numbers, in %.

Cn1nnc2c(C(N)=O)ncn2c1=O [Temozolomide] (max concentration tested 100000 nM) ... -9.04
c1ccc([C@H]2CN3CCSC3=N2)cc1 [Levamisole] (max concentration tested 10000 nM) ... 3.16
Cc1cc(OCc2nnc(SC3CCCC3)n2-c2cccnc2)ccc1-c1ccc(S(C)(=O)=O)cc1 [NMS-873] (max concentration tested 10000 nM) ... 91.2

Consider the following items and state reported percent inhibition of viability for each.
1. Cc1ccc(NC(=O)c2ccc(CN3CCN(C)CC3)cc2)cc1Nc1nccc(-c2cccnc2)n1 [Imatinib] (max concentration tested 10000 nM)
2. CNNCc1ccc(C(=O)NC(C)C)cc1 [Procarbazine] (max concentration tested 10000 nM)
3. Oc1c2ccccc2c2c3c(cccc13)N=N2 (max concentration tested 100000 nM)

79
-7.55
16

====

- Tested on: KAI3 (IL-2 2.5 ng/mL)
- assay: percent inhibition of viability; higher = more inhibition
- conditions: 72 h; 100 nM
Please go through the items and note down their percent inhibition of viability.
Answers are plain numbers, in %.

Worked cases, percent inhibition of viability given:
CC(C)C(=O)Nc1ccc([N+](=O)[O-])c(C(F)(F)F)c1 [Flutamide] (max concentration tested 10000 nM) ... -3.89
CS(=O)(=O)c1ccc(C2=C(c3ccccc3)C(=O)OC2)cc1 [Rofecoxib] (max concentration tested 10000 nM) ... 5.34
N[C@@H]1CCCN(c2c(/C=C3\SC(=O)NC3=O)cccc2-c2ccccc2)C1 [AZD1208] (max concentration tested 10000 nM) ... 7.33
COc1cc2c(Oc3ccc(NC(=O)C4(C(=O)Nc5ccc(F)cc5)CC4)cc3F)ccnc2cc1OCCCN1CCOCC1 [Foretinib] (max concentration tested 1000 nM) ... 11.6
Cc1cn(-c2cc(NC(=O)c3ccc(C)c(Nc4nccc(-c5cccnc5)n4)c3)cc(C(F)(F)F)c2)cn1 [Nilotinib] (max concentration tested 10000 nM) ... 4.99

Consider the following items and state reported percent inhibition of viability for each.
1. c1ccc([C@H]2CN3CCSC3=N2)cc1 [Levamisole] (max concentration tested 10000 nM)
2. CCC1=C[C@@H]2CN(C1)Cc1c([nH]c3ccccc13)[C@@](C(=O)OC)(c1cc3c(cc1OC)N(C)[C@H]1[C@@](O)(C(=O)OC)[C@H](OC(C)=O)[C@]4(CC)C=CCN5CC[C@]31[C@@H]54)C2 [Vinorelbine] (max concentration tested 10000 nM)
3. O=C(NC1CCNCC1)c1n[nH]cc1NC(=O)c1c(Cl)cccc1Cl [AT7519] (max concentration tested 10000 nM)
4. Cc1c(NC(=O)OC[C@@H]2COCCN2)cn2ncnc(Nc3ccc4c(cnn4Cc4cccc(F)c4)c3)c12 (max concentration tested 10000 nM)

-10.5
58.9
4.7
5.56

Consider the following items and state reported percent inhibition of viability for each.
1. O=C(O)c1ccc2c(c1)nc(Nc1cccc(Cl)c1)c1ccncc12 [Silmitasertib] (max concentration tested 10000 nM)
2. Clc1ccccc1C(c1ccccc1)(c1ccccc1)n1cccn1 [TRAM-34] (max concentration tested 1000 nM)
3. CN[C@@H]1C[C@H]2O[C@@](C)([C@@H]1OC)n1c3ccccc3c3c4c(c5c6ccccc6n2c5c31)C(=O)N[C@H]4O [UCN-01] (max concentration tested 10000 nM)
4. Cn1cc(CNCC2CCN(c3ncc(C(=O)NO)cn3)CC2)c2ccccc21 [Quisinostat] (max concentration tested 1000 nM)
5. Cc1nc(Nc2n[nH]c3c2CN(C(=O)N[C@H](CN(C)C)c2ccccc2)C3(C)C)c2sccc2n1 (max concentration tested 10000 nM)
6. CC[C@@]1(O)C(=O)OCc2c1cc1n(c2=O)Cc2cc3c(CN(C)C)c(O)ccc3nc2-1 [Topotecan] (max concentration tested 10000 nM)

1: 8.8; 2: 2.61; 3: 95.1; 4: 88.8; 5: 38.2; 6: 82.9

Consider the following items and state reported percent inhibition of viability for each.
1. CC(C)CC(=O)Nc1n[nH]c2c1CN(C(=O)C1CCN(C)CC1)C2(C)C (max concentration tested 10000 nM)
2. Cn1cncc1[C@@](N)(c1ccc(Cl)cc1)c1ccc2c(c1)c(-c1cccc(Cl)c1)cc(=O)n2C [Tipifarnib] (max concentration tested 10000 nM)
3. Nc1cccc2c1CN(C1CCC(=O)NC1=O)C2=O (centres undefined) [Lenalidomide] (max concentration tested 100000 nM)
4. Oc1c2ccccc2c2c3c(cccc13)N=N2 (max concentration tested 100000 nM)

[10.2, 47.3, 1.64, -0.37]

Reference for the values: the supplement of paper PMC5908809
